# Tested on: Oligodendrocytes (MO3.13 cells)
# Experimental Details: Ceramide-induced cell death of oligodendrocytes, Calcein AM viability
# Assay type: cell-based
# Details: 120 h, ceramide 2.75 μM, compound 20 μM; non-ceramide control = 100; read-out: % Viable at Day 5

Chem Smiles	Unit Text	viability at 20 µM
O=C(O)CNC(=O)c1c(O)c2cc(Cl)cn2n(Cc2ccc(Cl)cc2)c1=O	%	64
N#Cc1nc(C(=O)NCC(=O)O)c(O)c2ccn(Cc3ccccc3F)c12	%	52
COc1cccc(Oc2cccc3c(O)c(C(=O)NCC(=O)O)ncc23)c1	%	71
COc1ccc(Cn2c(Cl)c(Cl)c3c(O)c(C(=O)NCC(=O)O)nc(C#N)c32)cc1	%	50
CCCCOc1ccc2c(O)c(C(=O)NCC(=O)O)c(=O)sc2c1	%	59
C[C@H](NC(=O)c1c(O)c2cc(Cl)cn2n(Cc2ccc(C(F)(F)F)cc2)c1=O)C(=O)O	%	77
COc1ccc(-c2ccc3c(O)c(C(=O)NCC(=O)O)c(=O)sc3c2)cc1	%	64
CC1(C)C(=O)C(C(=O)NCC(=O)O)=C(O)c2cc(Cl)ccc21	%	67
O=C(O)CNC(=O)c1c(O)c2ccc(-c3ccc(Oc4ccccc4)cc3)cc2oc1=O	%	22

###

# Test system: Oligodendrocytes (MO3.13 cells)
# Experimental Details: Ceramide-induced cell death of oligodendrocytes, Calcein AM viability
# Type: cell-based
# Details: 120 h, ceramide 2.75 μM, compound 20 μM; non-ceramide control = 100; read-out: % Viable at Day 5
Property Label: viability at 20 µM (%)

Compound	Property Label	Value
CCCCCCOc1ccc2oc(=O)c(C(=O)NCC(=O)O)c(O)c2c1 [Compound K]	viability at 20 µM	56
O=C(O)CNC(=O)c1ncc2cc(Oc3ccccc3)ccc2c1O [Compound F]	viability at 20 µM	51
COc1cc(F)cc(Oc2ccc3c(O)c(C(=O)NCC(=O)O)ncc3c2)c1 [Compound D]	viability at 20 µM	61

###

# Tested on: Oligodendrocytes (MO3.13 cells)
# Experimental Details: Ceramide-induced cell death of oligodendrocytes, Calcein AM viability
# Format: cell-based
# Details: 96 h, ceramide 2.75 μM, compound 20 μM; non-ceramide control = 100; read-out: % Viable at Day 4
viability at 20 µM for assorted compounds
Property Label: viability at 20 µM (%)

Compound	Measured On	Property Label	Unit Text	Value
COc1cc(F)cc(Oc2ccc3c(O)c(C(=O)NCC(=O)O)ncc3c2)c1 [Compound D]	Oligodendrocytes (MO3.13 cells)	viability at 20 µM	%	74
CC1(C)C(=O)C(C(=O)NCC(=O)O)=C(O)c2cc(Cl)ccc21 [Compound N]	Oligodendrocytes (MO3.13 cells)	viability at 20 µM	%	67
O=C(O)CNC(=O)c1ncc2cc(Oc3ccccc3)ccc2c1O [Compound F]	Oligodendrocytes (MO3.13 cells)	viability at 20 µM	%	53

###

# System: Oligodendrocytes (MO3.13 cells)
# Experimental Details: Ceramide-induced cell death of oligodendrocytes, Calcein AM viability
# Assay type: cell-based
# Details: 72 h, ceramide 2.25 μM, compound 20 μM; non-ceramide control = 100; read-out: % Viable at Day 3
Property Label: viability at 20 µM

Chem Smiles	Value
N#Cc1nc(C(=O)NCC(=O)O)c(O)c2c(Oc3ccccc3)cccc12	82%
N#Cc1nc(C(=O)NCC(=O)O)c(O)c2ccn(Cc3ccc(-c4ccccc4)cc3)c12	79%
Cc1ccc(Oc2cccc3c(O)c(C(=O)NCC(=O)O)nc(-c4cccnc4)c23)cc1	61%
Cc1ccc(Oc2cccc3c(C#N)nc(C(=O)NCC(=O)O)c(O)c23)cc1	76%
O=C(O)CNC(=O)c1c(O)c2cccn2n(Cc2ccc(C(F)(F)F)cc2)c1=O	94%
O=C(O)CNC(=O)c1ncc2cc(Oc3ccccc3)ccc2c1O	85%

###

# Tested on: Oligodendrocytes (MO3.13 cells)
# Experimental Details: Ceramide-induced cell death of oligodendrocytes, Calcein AM viability
# Format: cell-based
# Details: 120 h, ceramide 2.25 μM, compound 20 μM; non-ceramide control = 100; read-out: % Viable at Day 5
Labelling: viability at 20 µM reported below 60% becomes yes (1); at or above becomes no (0).

Compound	Group Label
Cc1ccc(Oc2cccc3c(C#N)nc(C(=O)NCC(=O)O)c(O)c23)cc1 [Compound B]	yes (1)
O=C(O)CNC(=O)c1c(O)c2cccn2n(Cc2ccc(C(F)(F)F)cc2)c1=O [Compound G]	no (0)
O=C(O)CNC(=O)c1ncc2cc(Oc3ccccc3)ccc2c1O [Compound F]	no (0)
N#Cc1nc(C(=O)NCC(=O)O)c(O)c2c(Oc3ccccc3)cccc12 [Compound A]	yes (1)
N#Cc1nc(C(=O)NCC(=O)O)c(O)c2ccn(Cc3ccc(-c4ccccc4)cc3)c12 [Compound P]	no (0)
Cc1ccc(Oc2cccc3c(O)c(C(=O)NCC(=O)O)nc(-c4cccnc4)c23)cc1 [Compound C]	yes (1)

###

# Tested on: Oligodendrocytes (MO3.13 cells)
# Experimental Details: Ceramide-induced cell death of oligodendrocytes, Calcein AM viability
# Type: cell-based
# Details: 96 h, ceramide 2.75 μM, compound 20 μM; non-ceramide control = 100; read-out: % Viable at Day 4
Labelling: viability at 20 µM reported below 60% becomes Y; at or above becomes N.

Chem Smiles	Group Label
N#Cc1nc(C(=O)NCC(=O)O)c(O)c2ccn(Cc3ccccc3F)c12	Y
CCCCCCOc1ccc2oc(=O)c(C(=O)NCC(=O)O)c(O)c2c1	Y
COc1cccc(Oc2cccc3c(O)c(C(=O)NCC(=O)O)ncc23)c1	N
O=C(O)CNC(=O)c1c(O)c2cc(Cl)cn2n(Cc2ccc(Cl)cc2)c1=O	N
O=C(O)CNC(=O)c1c(O)c2ccc(-c3ccc(Oc4ccccc4)cc3)cc2oc1=O	Y
C[C@H](NC(=O)c1c(O)c2cc(Cl)cn2n(Cc2ccc(C(F)(F)F)cc2)c1=O)C(=O)O	N
CCCCOc1ccc2c(O)c(C(=O)NCC(=O)O)c(=O)sc2c1	Y
